Test system: CCRF-CEM
Test: MTS cytotoxicity assay, 72 h, CCRF-CEM
Format: cell-based
Conditions: Homo sapiens, CCRF-CEM, 72 h, MTS; Table 1
Protocol: Based on the preliminary results and tests of a larger library of known triterpenoids, a small set of 2-substituted lupane and 18α-oleanane derivatives was designed and synthesized. As the first step, the cytotoxic activity of the synthesized derivatives was assessed using an MTS assay following 72 h of treatment (Table 1). Selected cell lines A549 (lung adenocarcinoma) and DU-145 (prostate cancer) are both dependent on Hh signaling. […]
pIC50: −log10 of the molar value.
result_type: pIC50

- CC1(C)C(=O)C(c2ccc3cn[nH]c3c2)=C[C@@]2(C)C1CC[C@]1(C)C2CCC2C3[C@H]4OC[C@@]3(CCC4(C)C)CC[C@]21C (stereo partly drawn) [Compound 4n]: 4.74
- CC1(C)C(=O)C(c2ccc3[nH]ccc3c2)=C[C@@]2(C)C1CC[C@]1(C)C2CCC2C3[C@H]4OC[C@@]3(CCC4(C)C)CC[C@]21C (stereo partly drawn) [Compound 4m]: 4.59
- CC1(C)C(=O)C(c2ccncc2)=C[C@@]2(C)C1CC[C@]1(C)C2CCC2C3[C@H]4OC[C@@]3(CCC4(C)C)CC[C@]21C (stereo partly drawn) [Compound 4h]: 4.72
- C=C(C)[C@@H]1CC[C@]2(C(=O)O)CC[C@]3(C)[C@H](CC[C@@H]4[C@@]5(C)CC[C@H](O)C(C)(C)[C@@H]5CC[C@]43C)[C@@H]12 [Betulinic acid 5, betulinic acid, reference compound]: 5.09
- C=C(C)[C@@H]1CC[C@]2(C(=O)O)CC[C@]3(C)C(CCC4[C@@]5(C)C=C(c6cncc7ccccc67)C(=O)C(C)(C)C5CC[C@]43C)C12 (stereo partly drawn) [Compound 11l]: 5.14
- C=C(C)[C@@H]1CC[C@]2(C(=O)O)CC[C@]3(C)C(CCC4[C@@]5(C)C=C(c6ccc7cn[nH]c7c6)C(=O)C(C)(C)C5CC[C@]43C)C12 (stereo partly drawn) [Compound 11n]: 5.31
- CC1(C)C(=O)C(c2cccnc2)=C[C@@]2(C)C1CC[C@]1(C)C2CCC2C3[C@H]4OC[C@@]3(CCC4(C)C)CC[C@]21C (stereo partly drawn) [Compound 4g]: 4.60
- C=C(C)[C@@H]1CC[C@]2(C(=O)O)CC[C@]3(C)C(CCC4[C@@]5(C)C=C(c6ccoc6)C(=O)C(C)(C)C5CC[C@]43C)C12 (stereo partly drawn) [Compound 11b]: 5.22
- C=C(C)[C@@H]1CC[C@]2(C(=O)O)CC[C@]3(C)C(CCC4[C@@]5(C)C=C(c6cncnc6)C(=O)C(C)(C)C5CC[C@]43C)C12 (stereo partly drawn) [Compound 11i]: 4.71
- C=C(C)[C@@H]1CC[C@]2(C(=O)O)CC[C@]3(C)C(CCC4[C@@]5(C)C=C(c6ccco6)C(=O)C(C)(C)C5CC[C@]43C)C12 (stereo partly drawn) [Compound 11a]: 5.06
- C=C(C)[C@@H]1CC[C@]2(C(=O)O)CC[C@]3(C)C(CCC4[C@@]5(C)C=C(c6ccc7c(c6)OCCO7)C(=O)C(C)(C)C5CC[C@]43C)C12 (stereo partly drawn) [Compound 11j]: 5.31
- C=C(C)[C@@H]1CC[C@]2(C(=O)O)CC[C@]3(C)C(CCC4[C@@]5(C)C=C(c6cccnc6)C(=O)C(C)(C)C5CC[C@]43C)C12 (stereo partly drawn) [Compound 11g]: 4.74
- C=C(C)[C@@H]1CC[C@]2(C(=O)O)CC[C@]3(C)C(CCC4[C@@]5(C)C=C(c6ccncc6)C(=O)C(C)(C)C5CC[C@]43C)C12 (stereo partly drawn) [Compound 11h]: 5.28
